Data provenance is ChEMBL document CHEMBL5154649.

Kindly supply the reported Ratio IC50 values for the records listed here.
Test system: Plasmodium falciparum
procedure.details: Selectivity index, ratio of IC50 for antiplasmodial activity against CQ-susceptible Plasmodium falciparum 3D7 to IC50 for antiplasmodial activity CQ-resistant Plasmodium falciparum W2 by HRP2-ELISA
Type: functional
Form: value (number only, do not type unit).

Input: Request - read-out Ratio IC50 | tested on Plasmodium falciparum | molecule OC[C@@H](Cc1ccccc1)NC[C@H](O)c1cc(C(F)(F)F)nc2c(C(F)(F)F)cccc12
Output: 1.7

Input: Consider next the molecule OC[C@H](Cc1ccccc1)NC[C@H](O)c1cc(C(F)(F)F)nc2c(C(F)(F)F)cccc12 (single isomer, unassigned) in the same way.
Output: 1.2

Input: Consider next the molecule CCNCc1cc(Nc2ccnc3cc(Cl)ccc23)ccc1O in the same way.
Output: 0.25

Input: Consider next the molecule C[C@H]1[C@@H](O)O[C@@H]2O[C@@]3(C)CC[C@H]4[C@H](C)CC[C@@H]1[C@@]24OO3 in the same way.
Output: 0.9

Input: Consider next the molecule O[C@@H](CNCCNC(c1ccccc1)c1ccccc1)c1cc(C(F)(F)F)nc2c(C(F)(F)F)cccc12 in the same way.
Output: 2.4

Input: Consider next the molecule COC[C@H](Cc1ccccc1)NC[C@H](O)c1cc(C(F)(F)F)nc2c(C(F)(F)F)cccc12 in the same way.
Output: 1.5

Input: Consider next the molecule OC[C@H](Cc1ccccc1)NC[C@@H](O)c1cc(C(F)(F)F)nc2c(C(F)(F)F)cccc12 in the same way.
Output: 1.5

Input: Consider next the molecule COC[C@H](Cc1ccccc1)NC[C@@H](O)c1cc(C(F)(F)F)nc2c(C(F)(F)F)cccc12 in the same way.
Output: 1.35
